Here the recorded composite z-score is given for each entry.
molecular target: Calmodulin-1 (Homo sapiens) (UniProt P0DP23); assay: CALM1 binders on microarrays, EGTA buffer, profiling panel, biochemical, small-molecule microarray, Cy5-labelled CALM1 (AID 1111); details: Cy5-CALM1 binding fluorescence, higher = more signal;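 further: labelled calmodulin applied in Tris saline Tween buffer holding calcium plus EGTA and DTT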
Enter a number only.

(Q) Given the entry `CC(C)C[C@@H]1NC(=O)[C@@H]2C[C@H](C(=O)NCCCCCC[N+](C)(C)C)[C@H](c3cccc(OCCO)c3)N2C1=O` , report its measured composite z-score.
(A) -0.105

(Q) Given the entry `O=C(O)[C@H]1C[C@H]2C(=O)N[C@@H](Cc3ccccc3)C(=O)N2[C@H]1c1cccc(OCCO)c1` , report its measured composite z-score.
(A) -0.309

(Q) Given the entry CC(=O)N1CC(C(O)C2C=CC3C(=O)NC(=O)C3N2Nc2ccc(Cl)cc2Cl)c2ccccc21 (configuration not stated) , report its measured composite z-score.
(A) 1.18

(Q) Given the entry `COCCOC(=O)N1C(=O)[C@@]2(c3cc(C#CCNC(N)=O)ccc31)[C@H](c1ccc(OCCO)cc1)N1[C@H](c3ccccc3)[C@H](c3ccccc3)OC(=O)[C@H]1[C@@H]2C(=O)NC[C@H](O)c1ccccc1` , report its measured composite z-score.
(A) 1.22

(Q) Given the entry `[N-]=[N+]=NCc1ccccc1[C@H]1OC(c2ccc(OCCCO)cc2)=N[C@@]1(Cc1ccccc1)C(=O)NCCN1CCOCC1` , report its measured composite z-score.
(A) 0.572

Continuing:
(Q) Given the entry `COC(=O)[C@@]1(Cc2ccc(OC)cc2)[C@H]2c3cc(C(=O)N4CCCC4)n(Cc4cc(C)n(C)n4)c3C[C@H]2CN1C(=O)c1ccccc1` , report its measured composite z-score.
(A) 1.46

(Q) Given the entry CCN(CC)c1ccc(N2CC=CC34O[C@@H]5C=CCCOC(=O)C5[C@H]3C(=O)N(CCO)[C@@H]4C2=O)cc1 (some centres not stated) , report its measured composite z-score.
(A) -0.547

====

target: Torsin-1A (Homo sapiens) (UniProt O14656); test: torsin A binders from cell lysate, primary screen, small-molecule microarray, wild-type, 635/667 nm (AID 1149); settings: COS7 hTOR1A-WT lysate, 635 nm fluorescence, higher = more signal
Sequence (O14656 whole entry, looked up): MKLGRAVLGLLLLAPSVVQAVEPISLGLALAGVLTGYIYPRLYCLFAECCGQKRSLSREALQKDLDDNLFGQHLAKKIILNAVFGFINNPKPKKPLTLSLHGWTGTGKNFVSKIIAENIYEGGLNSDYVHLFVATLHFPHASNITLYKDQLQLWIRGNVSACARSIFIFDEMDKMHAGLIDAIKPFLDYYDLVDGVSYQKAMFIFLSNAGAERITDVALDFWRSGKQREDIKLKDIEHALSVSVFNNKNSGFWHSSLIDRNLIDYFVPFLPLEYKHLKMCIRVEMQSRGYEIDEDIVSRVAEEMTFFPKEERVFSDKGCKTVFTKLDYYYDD
Here the recorded composite z-score is given for each entry.
Enter a number only.

(Q) Given the entry CN1C(=O)C2C(C1=O)C1C=C(CCCO)C2C(c2cccs2)N1Cc1cc2c(cc1Br)OCO2 (stereo not drawn) , report its measured composite z-score.
(A) 1.5

(Q) Given the entry COc1cc(NN2C(C(O)c3ccc(I)cc3)C=CC3C(=O)N(c4ccccc4)C(=O)C32)cc(OC)c1OC (stereo not drawn) , report its measured composite z-score.
(A) 0.544

(Q) Given the entry `CO[C@H]1O[C@H](CO)[C@@H](OC(=O)c2ccc(Br)cc2)[C@@H]2OC(=O)[C@H](Cc3ccccc3)C/C=C/C[C@@H](Cc3ccccc3)C(=O)O[C@@H]12` , report its measured composite z-score.
(A) -0.295

(Q) Given the entry `[N-]=[N+]=NCc1ccccc1[C@@H]1OC(c2ccc(OCCCO)cc2)=N[C@]1(Cc1ccccc1N=[N+]=[N-])C(=O)N1CCCCC1` , report its measured composite z-score.
(A) 0.133

(Q) Given the entry CC1CC/C=C\[C@H]2OC34C=CCN(CCN5CCOCC5)C(=O)[C@H]3N(C(C)CO)C(=O)[C@@H]4C2C(=O)O1 (stereo partly drawn) , report its measured composite z-score.
(A) -1.72

(Q) Given the entry `CCOC(=O)C1=C[C@@H](c2ccccc2)N(S(=O)(=O)c2ccc(C)cc2)[C@H]1c1ccccc1` , report its measured composite z-score.
(A) 0.0157

(Q) Given the entry C=C(C)[C@@H]1CC=C(C(O)C2C=CC3C(=O)N(c4ccccc4)C(=O)C3N2Nc2ccc(C#N)cc2)CC1 (stereo partly drawn) , report its measured composite z-score.
(A) 0.202

Continue with the molecule presented below.
(Q) Given the entry `C=C[C@@H](C)[C@@H](OC(=O)Nc1ccc(SC)cc1)c1ccc(OCCO)cc1` , report its measured composite z-score.
(A) 0.495

Origin of measurements: PubChem BioAssay
